- tested-on: human CD3 epsilon/delta heterodimer, Fc-tagged (human)
- Sequence (chain, as listed by the source mutant, chain 1 of 2): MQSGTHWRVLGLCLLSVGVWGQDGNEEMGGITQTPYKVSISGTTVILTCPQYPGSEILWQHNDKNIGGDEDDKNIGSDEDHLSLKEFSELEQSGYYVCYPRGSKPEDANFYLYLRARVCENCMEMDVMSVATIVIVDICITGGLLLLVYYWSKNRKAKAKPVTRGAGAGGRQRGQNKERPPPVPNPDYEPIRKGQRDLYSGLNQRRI
- Sequence (chain, as listed by the source mutant, chain 2 of 2): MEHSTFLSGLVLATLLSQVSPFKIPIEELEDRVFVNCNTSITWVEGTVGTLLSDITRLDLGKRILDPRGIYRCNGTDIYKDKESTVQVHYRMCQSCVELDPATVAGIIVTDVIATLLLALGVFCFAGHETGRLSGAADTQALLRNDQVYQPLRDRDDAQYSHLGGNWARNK
- experiment-description: SPR, 25C antibody-capture
pKd: −log10 of the molar value.
Each entry below carries its reported pKd.
recorded-metric: pKd

| binder | recorded-metric | val |
| --- | --- | --- |
| H1H5769P (antibody, V domains shown) VH: EVQLVESGGGLVQPGRSLRLSCAASGFTFDDYTMHWVRQVPGKGLEWISGISWNSGSMDYADSVKGRFTISRDNARNSLFLQMNSVRTEDTALYYCAKDKSGYGSFYYGMDVWGQGTTVTVSS VL: EIVLTQSPGTLSLSPGDRATLSCRASQSVSSIYLAWYQQKPGQAPRLLIHGASTRATGIPDRFSGSGSGTDFTLTISRLEPEDFAVYYCQQRAHSPYTFGQGTKLEIK | pKd | 6.92 |
| H1H5777P (antibody, V domains shown) VH: EVQLVESGGGLVQPGRSLRLSCAASGFTFDDYAMHWVRQAPGKGLEWVSGISWNSGSRDYADSVKGRFTISRDNARNSLFLQMNSLSTEDTALYYCAKDKSGYGSYYYGMDVWGQGTTVTVSS VL: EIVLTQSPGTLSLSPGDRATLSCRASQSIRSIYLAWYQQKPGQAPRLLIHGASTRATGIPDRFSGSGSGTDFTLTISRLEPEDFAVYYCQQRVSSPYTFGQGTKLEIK | pKd | 6.65 |
| H1H5761P (antibody, V domains shown) VH: QVQLVESGGGVVQPGRSLRLSCAASGFTFSSYGMHWVRQAPGKGLEWVAVISYDGSNKYYADSVKGRFTISRDYSKNTLYLQMNSLRAEDTAVFYCAKGAMVRGVPYNYYYGMDVWGQGTTVTVSS VL: DIQMTQSPSSLSASVGDRVTITCRASQGIRNDLGWFQQKPGKAPKRLIYAASSLQSGVPSRFSGSGSGTEFTLTISSLQPEDFATYYCLQHNSYPYTFGQGTKLEIK | pKd | 5.29 |
| H1H5751P (antibody) chain 1: EVQLVESGGDLVQPGRSLRLSCAASGFTFDDYTMHWVRQAPGKGLEWVSIISWNGNTIDYADSVKGRFTISRDNAKNSLYLQMNSLRAEDTALYYCAKDKSGYGHFYYYVLDVWGQGTTVTVSS chain 2: DIQMTQSPSSLSASVGDRVTITCRASQSINNYLNWYQQKPGKAPKLLIYAASSLQSGVPSRFSGSGSGTDFTLTISSLQPEDFATYYSQQSYSFPWTFGQGTKVEIK | pKd | 6.89 |
